- measurement-protocol: Metabolic stability in rat microsomes assessed as intrinsic clearance
- Assay type: ADME, Microsome
property: CLint scaled

>>> experimental_value("Cc1ccc2c(OCCN3CCC(Cc4cccc(N5CCCN(C)CC5)c4)CC3)cccc2n1")
"26 mL/min/kg"
>>> experimental_value("Cc1ccc2c(OCCN3CCC(Cc4cccc(C5CCN(C)CC5)c4)CC3)cccc2n1")
"2 mL/min/kg"
>>> experimental_value("Cc1ccc2c(OCCN3CCC(Cc4cccc(N5CCCCC5)c4)CC3)cccc2n1")
"6.2 mL/min/kg"
>>> experimental_value("Cc1ccc2c(OCCN3CCC(Cc4cccc(N5CCN(C)CC5)c4)CC3)cccc2n1")
"2.9 mL/min/kg"
